Each recorded value in this set is attributed to patent US12495798B2.

What pest or weed control at 50 g/ha was measured for each of the following?
test system: indian jointvetch; assay: Herbicidal activity test against upland field weeds (foliar treatment test); format: in vivo; conditions: 50 g ai/ha, scale 0-100

Lab note: measured pest or weed control at 50 g/ha of Cn1nnc(CSCc2nc(C(F)(F)F)ccc2C(=O)N(C(=O)c2ccccc2)c2nnnn2C)n1 was 98%

Lab note: measured pest or weed control at 50 g/ha of Cn1nnc(COCc2nc(C(F)(F)F)ccc2C(=O)N(c2nnnn2C)S(C)(=O)=O)n1 was 80%

Lab note: measured pest or weed control at 50 g/ha of C=CCn1nnnc1NC(=O)c1ccc(C(F)(F)F)nc1COCc1nnn(CC)n1 was 80%

Lab note: measured pest or weed control at 50 g/ha of CC(=O)N(C(=O)c1ccc(C(F)(F)F)nc1COCc1nnn(C)n1)c1nnnn1C was 80%

* * *

test system: sorghum; assay: Herbicidal activity test against upland field weeds (soil treatment test); format: in vivo; conditions: Sorghum, 50 g ai/ha, scale 0 (no control) to 100 (complete control)
What plant injury at 50 g/ha was measured for each of the following?
Field format: number, assumed %, no unit text.

Lab note: measured plant injury at 50 g/ha of Cn1nnc(COCc2nc(C(F)F)ccc2C(=O)Nc2nnnn2C)n1 was 20

Lab note: measured plant injury at 50 g/ha of Cn1nnc(COCc2nc(C(F)(F)C(F)(F)F)ccc2C(=O)Nc2nnnn2C)n1 was 50

Lab note: measured plant injury at 50 g/ha of Cn1nnc(CSCc2nc(C(F)(F)F)ccc2C(=O)Nc2nnnn2C)n1 was 20

Lab note: measured plant injury at 50 g/ha of Cn1nnc(COCc2nc(C(F)(F)Cl)ccc2C(=O)Nc2nnnn2C)n1 was 50

* * *

system: corn; assay: Phytotoxicity test for upland field crops (foliar treatment test); assay type: in vivo; settings: 100 g ai/ha, Corn (7 days after treatment)
result-type: Foliar treatment phytotoxicity, Corn
In your answer, state the number alone without any accompanying words.

Lab note: measured Foliar treatment phytotoxicity, Corn of Cn1nnnc1CSc1nc(C(F)(F)F)ccc1C(=S)Nc1nnnn1C was 5

Lab note: measured Foliar treatment phytotoxicity, Corn of Cn1cnc(COCc2nc(C(F)F)ccc2C(=O)Nc2nnnn2C)n1 was 0

Lab note: measured Foliar treatment phytotoxicity, Corn of Cn1nc(COCc2nc(C(F)(F)F)ccc2C(=O)Nc2nnnn2C)nc1C#N was 0

Lab note: measured Foliar treatment phytotoxicity, Corn of C=C(C)c1nc(COCc2nc(C(F)(F)F)ccc2C(=O)Nc2nnnn2C)nn1C was 2

Lab note: measured Foliar treatment phytotoxicity, Corn of CCn1nnc(COCc2nc(C(F)(F)F)ccc2C(=O)Nc2nnnn2CC)n1 was 0

Lab note: measured Foliar treatment phytotoxicity, Corn of Cn1nnc(CS(=O)(=O)Cc2nc(C(F)(F)F)ccc2C(=O)Nc2nnnn2C)n1 was 0

Lab note: measured Foliar treatment phytotoxicity, Corn of Cn1nnc(COCc2nc(C(F)F)ccc2C(=O)Nc2nnnn2C)n1 was 3

Lab note: measured Foliar treatment phytotoxicity, Corn of COc1nc(COCc2nc(C(F)(F)F)ccc2C(=O)Nc2nnnn2C)nn1C was 0

Lab note: measured Foliar treatment phytotoxicity, Corn of Cc1nc(COCc2nc(C(F)(F)F)ccc2C(=O)Nc2nnnn2C)nn1C was 2

Lab note: measured Foliar treatment phytotoxicity, Corn of C#CCn1nnnc1NC(=O)c1ccc(C(F)(F)F)nc1COCc1nc(C(F)(F)F)n(C)n1 was 0

Lab note: measured Foliar treatment phytotoxicity, Corn of Cn1nnc(CSCc2nc(C(F)(F)F)ccc2C(=O)Nc2nnnn2C)n1 was 0

Lab note: measured Foliar treatment phytotoxicity, Corn of Cn1nnnc1NC(=O)c1ccc(C(F)(F)F)nc1COCc1nc(S(C)(=O)=O)n(C)n1 was 0

Lab note: measured Foliar treatment phytotoxicity, Corn of CCCn1nnnc1NC(=O)c1ccc(C(F)(F)F)nc1COCc1nnn(CC)n1 was 0

Lab note: measured Foliar treatment phytotoxicity, Corn of Cn1ncnc1COCc1nc(C(F)(F)F)ccc1C(=O)Nc1nnnn1C was 6

Lab note: measured Foliar treatment phytotoxicity, Corn of Cn1nnnc1NC(=O)c1ccc(C(F)(F)F)nc1Sc1nnnn1C was 0

Lab note: measured Foliar treatment phytotoxicity, Corn of Cn1nnc(COCc2nc(C(F)(F)F)ccc2C(=O)Nc2nnnn2C)n1 was 3

Lab note: measured Foliar treatment phytotoxicity, Corn of C=CCn1nnnc1NC(=O)c1ccc(C(F)(F)F)nc1COCc1nc(C(F)F)n(C)n1 was 1
